Test system: U2OS
Assay: Multiplex assay against U2OS
Format: toxicity, cell-based
Conditions: human, 24 h, 10 µM, compound concentration 10 uM, replicate 2
Please go through the items and note down their Population Normal (%).
One number for each entry, in %.

molecule: CCC(=O)OCC(=O)[C@@]1(OC(=O)CC)[C@@H](C)C[C@H]2[C@@H]3CCC4=CC(=O)C=C[C@]4(C)[C@@]3(Cl)[C@@H](O)C[C@@]21C [BECLOMETHASONE DIPROPIONATE]
targetOfAssay: U2OS
readoutLabel: Population Normal (%)
testResult: 90
--
molecule: C=CCN1C[C@H](C(=O)N(CCCN(C)C)C(=O)NCC)C[C@@H]2c3cccc4[nH]cc(c34)C[C@H]21
targetOfAssay: U2OS
readoutLabel: Population Normal (%)
testResult: 97
--
molecule: CC(C)(C)c1ccc(CSc2cnn(C(C)(C)C)c(=O)c2Cl)cc1
targetOfAssay: U2OS
readoutLabel: Population Normal (%)
testResult: 98
--
molecule: O=c1nc2[nH]c3ccccc3nc-2c(=O)[nH]1
targetOfAssay: U2OS
readoutLabel: Population Normal (%)
testResult: 97

Batch of 7 molecules: report Population Normal (%) for each.
1. Cc1sc2c(c1C)C(c1ccc(Cl)cc1)=N[C@H](CC(=O)OC(C)(C)C)c1nnc(C)n1-2
2. Cc1cc(=O)n(C)c2cc(N3C(=O)CC[C@H](NS(=O)(=O)CC(C)C)[C@H]3c3ccc(Cl)cc3)ccc12
3. COCCCN1CCC(NC(=O)c2cc(Cl)c(N)c3c2OCC3)CC1 [PRUCALOPRIDE]
4. CN(C)C(=O)Cn1cc(-c2ccc(-c3nnc4ccccn34)cc2)cn1
5. OCCCNc1cc(-c2ccnc(Nc3cccc(Cl)c3)n2)ccn1
6. COc1cc2nc(N3CCN(C(=O)COc4c(OC)cccc4C(C)C)CC3)nc(N)c2cc1OC.Cl.Cl
7. Cn1cc(C(=O)OCC2CCN(CCNS(C)(=O)=O)CC2)c2ccccc21

1: 99; 2: 97; 3: 98; 4: 98; 5: 87; 6: 87; 7: 98

Batch of 2 molecules: report Population Normal (%) for each.
1. COc1cc(OC2CCN(C(C)=O)CC2)ccc1C(=O)N1CCC(N2C(=O)OCc3ccccc32)CC1
2. CSc1nc(NC2CCCC2)c([N+](=O)[O-])c(NC2CCCC2)n1

1: 97; 2: 96

Batch of 3 molecules: report Population Normal (%) for each.
1. COc1c(Nc2ccc(S(C)(=O)=O)nc2C)ncnc1OC1CCN(C(=O)OC(C)C)CC1
2. CN1CCN(c2ccc(Nc3c4ccccc4nc4ccccc34)cc2)CC1.Cl.Cl.O
3. Cc1ccc(OCC(O)C(C)NC(C)C)c2c1CCC2.Cl (stereo unspecified)

1: 94; 2: 89; 3: 97

Batch of 7 molecules: report Population Normal (%) for each.
1. CN1CCN2c3ccccc3Cc3ccccc3C2C1.Cl (stereo unspecified) [MIANSERIN HYDROCHLORIDE]
2. CN(C)C/C=C/C(=O)Nc1ccc(C(=O)N2CCCC(Nc3ncc(Cl)c(-c4c[nH]c5ccccc45)n3)C2)cc1 (stereo unspecified)
3. O=C(Nc1cc(-c2ccccc2)nn1-c1ccccc1F)c1ccc([N+](=O)[O-])cc1
4. CCn1c(-c2nc3cc(C(=O)N4CCCC(N)C4)ccc3n2C)cc2ccccc21.Cl (stereo unspecified)
5. Nc1nc(-c2ccco2)c2cnn(Cc3ccccc3F)c2n1
6. CN1CCC(C(=O)c2cccc(NC(=O)c3c(F)cc(F)cc3F)n2)CC1
7. Cc1cc(-c2ccc3c(c2)CC[C@H]3N2CC3(CCN(C(=O)Cc4cn5cc(C)sc5n4)CC3)C2)ncn1

[97, 94, 99, 96, 98, 94, 98]
